FYI, the data here is from patent US6469028B1.

experimentalTarget: RXRγ (Mus musculus)
Construct: expressed in transfected cells; host or cells: CV1 cells
Sequence (P28705 whole entry): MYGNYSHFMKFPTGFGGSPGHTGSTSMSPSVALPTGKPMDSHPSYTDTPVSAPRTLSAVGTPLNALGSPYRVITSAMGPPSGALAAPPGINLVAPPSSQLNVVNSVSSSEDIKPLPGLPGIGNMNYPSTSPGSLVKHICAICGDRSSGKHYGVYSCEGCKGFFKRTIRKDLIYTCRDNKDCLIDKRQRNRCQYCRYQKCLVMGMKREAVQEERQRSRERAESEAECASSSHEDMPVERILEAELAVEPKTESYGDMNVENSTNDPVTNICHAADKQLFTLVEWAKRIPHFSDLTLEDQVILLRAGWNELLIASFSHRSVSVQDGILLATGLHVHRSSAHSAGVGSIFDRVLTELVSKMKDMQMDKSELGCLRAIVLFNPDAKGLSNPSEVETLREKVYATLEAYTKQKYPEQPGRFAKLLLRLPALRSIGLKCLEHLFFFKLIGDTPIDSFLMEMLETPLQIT
assayProtocol: Holoreceptor transactivation assay
Type: cell-based
conditionContext: relative to all trans retinoic acid; read-out: Transactivation Assay Efficacy (% of RA activity) RXRγ
Description: A holoreceptor transactivation assay and a ligand binding assay which measure the antagonist/agonist like activity of the compounds of the invention, or their ability to bind to the several retinoid receptor subtypes, respectively, are described in published PCT Application No. WO93/11755 (particularly on pages 30-33 and 37-41) published on Jun. 24, 1993, the specification of which is also incorporated herein by reference. […]
readoutType: Emax (%)
Your answer should be a plain number; it is taken to be in %.

# smilesStr, Emax (%)
records = [
    ("CC1(C)CC=C(c2ccc(Cl)cc2)c2cc(C#Cc3ccc(C(=O)O)cc3)ccc21", 3),
    ("CC1(C)CC=C(c2ccccn2)c2cc(C#Cc3ccc(C(=O)O)cc3)ccc21", 4),
]

Now look at this entry.
Ask: Given Cc1cccc(C2=CCC(C)(C)c3ccc(C#Cc4ccc(C(=O)O)cc4)cc32)c1 , state its recorded Emax.
Reply: 3

====

experimentalTarget: UniProt:P10826
Sequence (P10826 1-448 isoform P10826-2): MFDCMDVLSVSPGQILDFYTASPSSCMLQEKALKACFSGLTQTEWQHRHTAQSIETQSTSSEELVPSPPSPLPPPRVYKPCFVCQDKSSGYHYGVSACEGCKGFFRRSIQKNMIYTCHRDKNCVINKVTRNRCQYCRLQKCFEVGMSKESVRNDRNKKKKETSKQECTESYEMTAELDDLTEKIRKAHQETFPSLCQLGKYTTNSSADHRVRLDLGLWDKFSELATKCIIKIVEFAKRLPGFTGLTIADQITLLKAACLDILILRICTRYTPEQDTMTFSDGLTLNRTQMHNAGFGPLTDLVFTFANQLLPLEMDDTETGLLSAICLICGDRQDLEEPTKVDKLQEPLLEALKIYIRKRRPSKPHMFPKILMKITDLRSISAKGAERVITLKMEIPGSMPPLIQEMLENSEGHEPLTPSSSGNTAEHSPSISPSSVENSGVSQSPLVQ
assayProtocol: Holoreceptor transactivation assay
Assay type: cell-based
Design: expressed in transfected cells; host or cells: CV1 cells
conditionContext: relative to all trans retinoic acid; read-out: Transactivation Assay Efficacy (% of RA activity) RARβ
Classification field: TRUE = Emax at or over 6%; FALSE = Emax under 6%.

Reference set (5 entries):
# smilesStr, qualitativeLabel
measured = [
    ("CC1(C)CC=C(c2cccc(O)c2)c2cc(C#Cc3ccc(C(=O)O)cc3)ccc21", "TRUE"),
    ("Cc1ccc(C2=CCC(C)(C)c3ccc(/C=C/c4ccc(C(=O)O)cc4)cc32)cc1", "FALSE"),
    ("Cc1ccc(C2=CCC(C)(C)c3ccc(C#Cc4ccc(C(=O)O)cc4)cc32)cn1", "FALSE"),
    ("COc1ccc(C2=CCC(C)(C)c3ccc(C#Cc4ccc(C(=O)O)cc4)cc32)cc1", "FALSE"),
    ("Cc1ccc(C2=CCC(C)(C)c3ccc(C(=O)Oc4ccc(C(=O)O)cc4)cc32)cc1", "TRUE"),
]

Ask: Item Cc1ccc(C2=CCC(C)(C)c3ccc(C(=O)Nc4ccc(C(=O)O)cc4)cc32)cc1 with Emax of 6% or above?
Reply: FALSE

Ask: Assess whether reported Emax for Cc1ccc(C2=CCC(C)(C)c3ccc(C#Cc4ccc(C(=O)O)cc4)cc32)s1 sits at 6% or higher.
Reply: FALSE

====

experimentalTarget: RARα (Homo sapiens)
Sequence (P10276 1-462): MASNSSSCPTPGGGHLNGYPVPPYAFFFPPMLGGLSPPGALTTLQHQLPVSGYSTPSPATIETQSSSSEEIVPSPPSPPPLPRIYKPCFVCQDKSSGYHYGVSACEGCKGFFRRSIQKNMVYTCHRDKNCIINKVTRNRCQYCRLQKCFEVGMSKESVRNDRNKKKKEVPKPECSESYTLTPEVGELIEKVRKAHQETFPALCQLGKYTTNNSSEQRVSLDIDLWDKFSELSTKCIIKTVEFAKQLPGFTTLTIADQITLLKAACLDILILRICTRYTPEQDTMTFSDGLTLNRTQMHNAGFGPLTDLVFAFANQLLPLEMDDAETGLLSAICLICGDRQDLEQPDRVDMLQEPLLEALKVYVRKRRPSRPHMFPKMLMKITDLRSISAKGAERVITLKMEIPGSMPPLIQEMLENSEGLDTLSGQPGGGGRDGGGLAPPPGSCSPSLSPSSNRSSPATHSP
assayProtocol: [3H]-ATRA displacement assay, baculovirus expressed receptor
Format: binding
Set-up: made in house; host or cells: baculovirus expression system
conditionContext: as stated in Example 8; read-out: Kd at RAR-α
readoutType: Kd (µM)
Please give a number only; it is taken to be in µM.

Ask: Item Cc1ccc(C2=CCC(C)(C)c3ccc(C#Cc4ccc(C(=O)O)cc4)cc32)cc1 [Compound 60] has what recorded Kd?
Reply: 0.01

====

experimentalTarget: RARγ (Homo sapiens)
Sequence (P13631 whole entry): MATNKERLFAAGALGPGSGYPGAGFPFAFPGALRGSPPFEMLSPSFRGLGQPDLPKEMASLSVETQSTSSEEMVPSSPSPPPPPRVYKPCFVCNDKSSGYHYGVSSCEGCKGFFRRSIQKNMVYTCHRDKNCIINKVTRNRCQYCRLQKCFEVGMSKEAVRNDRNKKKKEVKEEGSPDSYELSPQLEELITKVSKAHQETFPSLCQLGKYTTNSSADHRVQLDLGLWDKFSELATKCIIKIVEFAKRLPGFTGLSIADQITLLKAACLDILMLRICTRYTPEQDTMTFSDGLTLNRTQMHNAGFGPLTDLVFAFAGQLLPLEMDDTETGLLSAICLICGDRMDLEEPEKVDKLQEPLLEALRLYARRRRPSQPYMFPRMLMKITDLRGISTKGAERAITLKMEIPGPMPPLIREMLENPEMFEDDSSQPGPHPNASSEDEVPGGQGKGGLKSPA
assayProtocol: Holoreceptor transactivation assay
Type: cell-based
Design: expressed in transfected cells; host or cells: CV1 cells
conditionContext: relative to all trans retinoic acid; read-out: Transactivation Assay Efficacy (% of RA activity) RARγ
readoutType: Emax (%)
Record the value in %, omitting the unit from your answer.

# example entries with known answers
# compound, recordedNumber
data = [
    ("CC1(C)CC=C(c2ccc(Cl)cc2)c2cc(C#Cc3ccc(C(=O)O)cc3)ccc21", 3),
    ("Cc1ccc(C2=CCC(C)(C)c3ccc(N=Nc4ccc(C(=O)O)cc4)cc32)cc1 [Compound 46b]", 3),
]

Ask: For RARγ (Homo sapiens), provide Emax of CC(/C=C/C=C(\C)c1ccc2c(c1)C(c1ccc(C)cc1)=CCC2(C)C)=C\C(=O)O please.
Reply: 3

Ask: API: value(readout= Emax, system= RARγ (Homo sapiens), query= CC1(C)CC=C(c2ccccn2)c2cc(C#Cc3ccc(C(=O)O)cc3)ccc21 )
Reply: 3

Ask: // fetch RARγ (Homo sapiens) Emax for CC1(C)CC=C(c2ccc(C(F)(F)F)cc2)c2cc(C#Cc3ccc(C(=O)O)cc3)ccc21
Reply: 3

====

experimentalTarget: RXRα (Homo sapiens)
Construct: expressed in transfected cells; host or cells: CV1 cells
Sequence (P19793 whole entry): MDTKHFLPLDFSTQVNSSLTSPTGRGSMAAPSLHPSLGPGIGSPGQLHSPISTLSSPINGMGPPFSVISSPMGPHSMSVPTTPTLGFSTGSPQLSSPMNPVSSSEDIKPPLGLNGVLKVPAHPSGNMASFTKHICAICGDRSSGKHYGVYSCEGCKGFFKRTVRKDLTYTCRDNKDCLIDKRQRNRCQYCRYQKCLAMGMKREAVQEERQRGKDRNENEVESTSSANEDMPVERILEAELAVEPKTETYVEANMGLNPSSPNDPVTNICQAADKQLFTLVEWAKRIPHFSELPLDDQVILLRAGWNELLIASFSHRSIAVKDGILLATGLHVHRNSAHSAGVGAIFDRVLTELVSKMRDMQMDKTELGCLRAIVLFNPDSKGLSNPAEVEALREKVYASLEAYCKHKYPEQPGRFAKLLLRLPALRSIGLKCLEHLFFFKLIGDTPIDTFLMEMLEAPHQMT
assayProtocol: Holoreceptor transactivation assay
Format: cell-based
conditionContext: relative to all trans retinoic acid; read-out: Transactivation Assay Efficacy (% of RA activity) RXRα
readoutType: Emax

Worked cases, Emax given:
# molecule, experimentalTarget, Emax
records = [
    ("Cc1ccccc1C1=CCC(C)(C)c2ccc(C#Cc3ccc(C(=O)O)cc3)cc21", "RXRα (Homo sapiens)", "2%"),
    ("Cc1ccc(C2=CCC(C)(C)c3ccc(N=Nc4ccc(C(=O)O)cc4)cc32)cc1 [Compound 46b]", "RXRα (Homo sapiens)", "2%"),
    ("CCc1ccc(C2=CCC(C)(C)c3ccc(C#Cc4ccc(C(=O)O)cc4)cc32)cc1", "RXRα (Homo sapiens)", "3%"),
    ("CC1(C)CC=C(c2ccccn2)c2cc(C#Cc3ccc(C(=O)O)cc3)ccc21", "RXRα (Homo sapiens)", "0%"),
    ("CC1(C)CC=C(c2ccc(O)cc2)c2cc(C#Cc3ccc(C(=O)O)cc3)ccc21", "RXRα (Homo sapiens)", "0%"),
    ("CC1(C)CC=C(c2ccc(C(F)(F)F)cc2)c2cc(C#Cc3ccc(C(=O)O)cc3)ccc21", "RXRα (Homo sapiens)", "1%"),
    ("Cc1ccc(C2=CCC(C)(C)c3ccc(C(=O)Nc4ccc(C(=O)O)c(F)c4)cc32)cc1", "RXRα (Homo sapiens)", "1%"),
    ("Cc1ccc(C2=CCC(C)(C)c3ccc(C#Cc4ccc(C(=O)O)cc4)cc32)s1", "RXRα (Homo sapiens)", "1%"),
]

Ask: Recorded Emax for CC(/C=C/C=C(\C)c1ccc2c(c1)C(c1ccc(C)cc1)=CCC2(C)C)=C\C(=O)O , please?
Reply: 0%

====

experimentalTarget: RARα (Homo sapiens, UniProt P10276)
assayProtocol: Ligand binding assay
Set-up: expressed in transfected cells; host or cells: CV1 cells
conditionContext: read-out: Kd (nanomolar) RARα
Catalogue of compounds with associated pKd
Lab note: report pKd as minus log10 of the concentration in molar units, number only.

# compound, experimentalTarget, pKd
records = [
    ("Cc1ccc(C2=CCC(C)(C)c3ccc(N=Nc4ccc(C(=O)O)cc4)cc32)cc1 [Compound 46b]", "RARα (Homo sapiens, UniProt P10276)", 6.60),
]

Ask: Request the reported pKd associated with Cc1cc(C)cc(C2=CCC(C)(C)c3ccc(C#Cc4ccc(C(=O)O)cc4)cc32)c1
Reply: 6.16

Ask: Which pKd value belongs to Cc1ccc(C2=CCC(C)(C)c3ccc(/C=C/c4ccc(C(=O)O)cc4)cc32)cc1 ?
Reply: 7.92

Ask: // returns reported pKd for input Cc1ccc(C2=CCC(C)(C)c3ccc(C#Cc4ccc(C(=O)O)cc4)cc32)s1
Reply: 7.28

Ask: Any idea what its pKd is? The compound is Cc1ccc(C2=CCC(C)(C)c3ccc(C(=O)Nc4ccc(C(=O)O)c(F)c4)cc32)cc1
Reply: 8.29

Ask: # pKd lookup, item CC1(C)CC=C(c2cccnc2)c2cc(C#Cc3ccc(C(=O)O)cc3)ccc21
Reply: 7.40

Ask: What value of pKd has been recorded for this entry: Cc1ccc(C2=CCC(C)(C)c3ccc(C(=O)Nc4ccc(C(=O)O)cc4)cc32)cc1
Reply: 7.89
